PROTOCOL_DESCRIPTION: NCI Yeast Anticancer Drug Screen. Data for the sgs1 mgt1 strain (AID 161);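 note: 0% = growth of cultures given vehicle only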
PARTICULARS: S. cerevisiae sgs1 mgt1 strain, at 50.0 µM, active compounds read high
About 79,000 compounds went through this panel and 15% of them were active in at least one assay; those are over-represented in the sample as a whole.
MEASURED_METRIC: growth inhibition (%)
Lab book: enter the figure in %, no units written.

Ask: For the molecule shown here, "CCOC(=O)C(Nc1cc([N+](=O)[O-])ccc1C(=O)N1CCCCC1)(C(=O)OCC)N1CCCCC1" , give the reported growth inhibition.
Result: 13.8

Ask: For the molecule shown here, "Cc1cc(N(CCC#N)CCC#N)ccc1/C(N=Nc1cccc(Cl)c1)=N/NC(=O)c1cc(Cl)ccc1O" , give the reported growth inhibition.
Result: 26.8

Ask: For the molecule shown here, CN1CC(CN2CCCCCC2)C(O)C(c2ccccc2)C1 (stereo not drawn) , give the reported growth inhibition.
Result: 18

* * *

PROTOCOL_DESCRIPTION: NCI Yeast Anticancer Drug Screen. Data for the sgs1 mgt1 strain (AID 161);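 note: 0% = growth of cultures given vehicle only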
PARTICULARS: S. cerevisiae sgs1 mgt1 strain, at 50.0 µM, active compounds read high
Procedure: Growth inhibition of yeast strains with defined genetic alterations is measured as a screen for potential anti-cancer activity. Selected strains with alterations in DNA damage repair or cell cycle control were exposed to compounds and growth inhibition was measured relative to vehicle treated controls. The strain used in this assay is sgs1 mgt1
Compounds without any hit were thinned out: in the full panel of roughly 79,000, 15% have a hit.
MEASURED_METRIC: growth inhibition (%)
Lab book: enter the figure in %, no units written.

Ask: For the compound shown here, "CC(C)S(=O)(=O)C(C)C" , give the reported growth inhibition.
Result: -8.65

Ask: For the compound shown here, "Cc1ccc(C)c(NC(=O)Oc2ccc(Cl)cc2Cc2ccccc2)c1" , give the reported growth inhibition.
Result: 0.05

Ask: For the compound shown here, "C=C(C)COc1ccc(Nc2ccccc2)cc1" , give the reported growth inhibition.
Result: 22

Ask: For the compound shown here, N#CC1CCCC/C1=N/NC(N)=O (centres undefined) , give the reported growth inhibition.
Result: -13.6

Ask: For the compound shown here, "CN1c2ccccc2S(=O)(=O)n2c(COc3ccc(Cl)cc3)nnc21" , give the reported growth inhibition.
Result: 2.5

Ask: For the compound shown here, "Nc1nnc(-c2ccccc2O)o1" , give the reported growth inhibition.
Result: 23.7

Ask: For the compound shown here, "CC(=O)/C(N=Nc1ccc(S(=O)(=O)c2ccc(N=N/C(C(C)=O)=C(/C)O)cc2)cc1)=C(\C)O" , give the reported growth inhibition.
Result: -9.8

Ask: For the compound shown here, "CC(=O)NCc1cc([N+](=O)[O-])ccc1O" , give the reported growth inhibition.
Result: -0.8

Ask: For the compound shown here, "CCOC(=O)C(/C=N\c1[nH]ncc1C#N)=C(/C(=O)OCC)c1ccc(O)cc1" , give the reported growth inhibition.
Result: -13.7

Ask: For the compound shown here, "O=C(O)c1nc(Cl)c(Cl)[nH]c1=O" , give the reported growth inhibition.
Result: 8.6

Ask: For the compound shown here, COc1cc(C(O)C2(c3ccc(O)c(OC)c3)NC(=O)NC2=O)ccc1O (centres undefined) , give the reported growth inhibition.
Result: -9.35

Ask: For the compound shown here, CN(C)CC(CN(C)C)C(O)c1ccccc1 (centres undefined) , give the reported growth inhibition.
Result: -6.35

Ask: For the compound shown here, CCCOC(C)OCCC#CCC(C)OC(=O)CC(Cl)(Cl)Cl (centres undefined) , give the reported growth inhibition.
Result: 10.7

Ask: For the compound shown here, CN1C(=O)C(O)(c2c3c(c(C4(O)C(=O)N(C)c5ccccc54)c4c2OCO4)OCO3)c2ccccc21 (centres undefined) , give the reported growth inhibition.
Result: -28.2

* * *

PROTOCOL_DESCRIPTION: NCI Yeast Anticancer Drug Screen. Data for the cln2 rad14 strain (AID 165);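 note: 0% = growth equal to vehicle treated cultures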
PARTICULARS: S. cerevisiae cln2 rad14 strain, at 50.0 µM, active compounds read high
The panel holds about 79,000 compounds, 15% with a hit somewhere; the sample as a whole holds those more often.
Consider the following compounds; for each one, report its growth inhibition.
Lab book: enter the figure in %, no units written.

Ask: For the compound shown here, "COc1cccc(-c2nc3ccccc3c(=O)[nH]2)c1OC" , give the reported growth inhibition.
Result: 18.1

Ask: For the compound shown here, CCOCCOCCOC12C(=O)C(Cl)=C(Cl)C(=O)C13C1CC2C(Cl)C13 (stereo unspecified) , give the reported growth inhibition.
Result: 98

Ask: For the compound shown here, "Cc1c(Cl)cc(Cl)c(N)c1Cl" , give the reported growth inhibition.
Result: -5.3

Ask: For the compound shown here, "Cc1nn(C)c(C#N)c1[N+](=O)[O-]" , give the reported growth inhibition.
Result: 4.4

Ask: For the compound shown here, "O=[N+]([O-])c1ccc(NC2CCCCC2)nc1" , give the reported growth inhibition.
Result: 7.65

Ask: For the compound shown here, CCOc1ccc2nc(NC(=O)/C(CC(=O)CC(C3=C(O)c4ccccc4CC3=O)c3ccccc3)=N\O)sc2c1 (stereo unspecified) , give the reported growth inhibition.
Result: -18.6

Ask: For the compound shown here, "C[Si](Cn1ccc(=O)n(C[Si](C)(c2ccccc2)c2ccccc2)c1=O)(c1ccccc1)c1ccccc1" , give the reported growth inhibition.
Result: -13.9

Ask: For the compound shown here, "Cc1ccc(S(=O)(=O)N/N=C/c2cc([N+](=O)[O-])ccc2O)cc1" , give the reported growth inhibition.
Result: 14.8

Ask: For the compound shown here, "O=C(O)CCc1coc2ccc(O)cc12" , give the reported growth inhibition.
Result: -20.6

Ask: For the compound shown here, Cc1ccc(C2C3CCC(=O)C=C3CN2C=O)cc1O (stereo unspecified) , give the reported growth inhibition.
Result: -44.6

Ask: For the compound shown here, "O=C(O)CCc1ccc2c(c1)C(=O)CC2" , give the reported growth inhibition.
Result: -16.1

Ask: For the compound shown here, O=C(O)CCCc1ccc2c(c1)-c1ccccc1S2=O (stereo unspecified) , give the reported growth inhibition.
Result: -3.6

Ask: For the compound shown here, "CN=C(NC#N)NCc1ccccc1" , give the reported growth inhibition.
Result: 10.1

Ask: For the compound shown here, CSc1nc(NC2OC(COC(C)=O)C(OC(C)=O)C(OC(C)=O)C2OC(C)=O)c2c(n1)OCC2=O (stereo unspecified) , give the reported growth inhibition.
Result: 28.2

Ask: For the compound shown here, COC1(OC)CC2C(=O)N(Cc3ccccc3)C1C(S(=O)(=O)c1ccccc1)C2S(=O)(=O)c1ccccc1 (stereo unspecified) , give the reported growth inhibition.
Result: -31.7

Ask: For the compound shown here, CN(C)c1ccc(C=Nc2ccc3c(c2)C(N2CCOCC2)c2ccccc2-3)cc1 (stereo unspecified) , give the reported growth inhibition.
Result: -5.3

* * *

Consider the following compounds; for each one, report its growth inhibition.
PROTOCOL_DESCRIPTION: NCI Yeast Anticancer Drug Screen. Data for the cln2 rad14 strain (AID 165);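 note: 0% = growth equal to vehicle treated cultures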
PARTICULARS: S. cerevisiae cln2 rad14 strain, at 50.0 µM, active compounds read high
The panel holds about 79,000 compounds, 15% with a hit somewhere; the sample as a whole holds those more often.
Lab book: enter the figure in %, no units written.

Ask: For the compound shown here, "O=C1C=CC(=O)N1Cc1ccco1" , give the reported growth inhibition.
Result: 8.5

Ask: For the compound shown here, "COC(=O)c1oc([N+](=O)[O-])c(-c2ccccc2)c1-c1ccccc1" , give the reported growth inhibition.
Result: -11.5

Ask: For the compound shown here, "COc1ccc(CCNC(=S)NCCc2ccc(OC)cc2)cc1" , give the reported growth inhibition.
Result: -28

Ask: For the compound shown here, "COc1ccc2oc3cc(NCCN(C)C)ccc3c(=O)c2c1" , give the reported growth inhibition.
Result: 15.9

* * *

Consider the following compounds; for each one, report its growth inhibition.
PROTOCOL_DESCRIPTION: NCI Yeast Anticancer Drug Screen. Data for the sgs1 mgt1 strain (AID 161);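 note: 0% = growth of cultures given vehicle only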
PARTICULARS: S. cerevisiae sgs1 mgt1 strain, at 50.0 µM, active compounds read high
About 79,000 compounds went through this panel and 15% of them were active in at least one assay; those are over-represented in the sample as a whole. Calls of active or inactive are those of the source. No stated cut-off is given here; in the data, active means growth inhibition above about 70%; inactive means the rest.

Ask: For the compound shown here, "CCCCNC(=O)c1ccccc1C" , give the reported growth inhibition.
Result: -6.7% (inactive)

Ask: For the compound shown here, "Nc1nc(N)nc(COc2ccccc2Cl)n1" , give the reported growth inhibition.
Result: 8.35% (inactive)

Ask: For the compound shown here, C[N+]([O-])(C/C=C/c1ccccc1)c1ccccc1 (stereo not given) , give the reported growth inhibition.
Result: -2.65% (inactive)

Ask: For the compound shown here, "O=C1Nc2ccccc2/C1=N/N=P(c1ccccc1)(c1ccccc1)c1ccccc1" , give the reported growth inhibition.
Result: 10.1% (inactive)

Ask: For the compound shown here, Oc1cc2c(c3c(O)c4ccccc4c(O)c13)=NC1CCCCC1N=2 (stereo not given) , give the reported growth inhibition.
Result: 20.6% (inactive)

Ask: For the compound shown here, CCN(CC)C(CC(=O)c1ccccc1)C(=O)c1ccccc1 (stereo not given) , give the reported growth inhibition.
Result: 13.2% (inactive)

Ask: For the compound shown here, "CCOCC/C(C(=O)O)=C(\CC)C(=O)O" , give the reported growth inhibition.
Result: 0% (inactive)

Ask: For the compound shown here, O=C(NC(CSSCC(NC(=O)OCc1ccccc1)C(=O)O)C(=O)O)OCc1ccccc1 (stereo not given) , give the reported growth inhibition.
Result: -2.4% (inactive)

Ask: For the compound shown here, OCC(O)C(O)C(O)C(Sc1ccccc1)Sc1ccccc1 (stereo not given) , give the reported growth inhibition.
Result: 7.4% (inactive)

Ask: For the compound shown here, "CCCCCCCC/C=C/CCCCCCCC(=O)N(CCOC(=O)C(C)(C)C)CCOC(=O)C(C)(C)C" , give the reported growth inhibition.
Result: 25.6% (inactive)

Ask: For the compound shown here, "COc1ccccc1NC(=O)CCl" , give the reported growth inhibition.
Result: 24.4% (inactive)

Ask: For the compound shown here, CCC(C)NCC/C(=C\[Si](C)(C)C)c1ccccc1 (stereo not given) , give the reported growth inhibition.
Result: -11.4% (inactive)

Ask: For the compound shown here, "COc1ccc(CCN=Cc2ccc(Cl)cc2)cc1OC" , give the reported growth inhibition.
Result: 15.4% (inactive)

Ask: For the compound shown here, "C[N+](C)(C)CBr" , give the reported growth inhibition.
Result: -21.5% (inactive)

Ask: For the compound shown here, "CCOc1c2c(nn(C)c1=O)Oc1ccccc1N2CCCN1CCOCC1" , give the reported growth inhibition.
Result: -18.1% (inactive)

Ask: For the compound shown here, "CC(=O)N1CC(C)(C)c2c(C)c(O)c(C)c(C)c21" , give the reported growth inhibition.
Result: -15.4% (inactive)

Ask: For the compound shown here, "S=c1ccc2ccccc2[nH]1" , give the reported growth inhibition.
Result: -0.75% (inactive)

Ask: For the compound shown here, "CC(C)OC(=O)c1ccc(=O)oc1" , give the reported growth inhibition.
Result: -2.4% (inactive)

Ask: For the compound shown here, "Cc1cccc(Cl)c1NC(=O)N(C)c1ccccc1" , give the reported growth inhibition.
Result: 14.2% (inactive)

Ask: For the compound shown here, "CCCC1(c2ccccc2)CNC(=O)NC1" , give the reported growth inhibition.
Result: 1.8% (inactive)

Ask: For the compound shown here, Cc1ccc(OCC(=O)C2CSc3ccc(Cl)cc32)cc1 (stereo not given) , give the reported growth inhibition.
Result: 26.4% (inactive)

Ask: For the compound shown here, "Cc1c(C)c(CC(=O)N2CC2)c(C)c(C)c1CC(=O)N1CC1" , give the reported growth inhibition.
Result: -3.9% (inactive)

Ask: For the compound shown here, "CC(C)[Si](C#CC[Si](C(C)C)(C(C)C)C(C)C)(C(C)C)C(C)C" , give the reported growth inhibition.
Result: -17.4% (inactive)

Ask: For the compound shown here, "CSc1nc(N(C)C)c2[nH]c(C)nc2n1" , give the reported growth inhibition.
Result: -6.55% (inactive)

Ask: For the compound shown here, CCCCCCC(=O)CC(SCCS)c1ccc(Cl)c(Cl)c1 (stereo not given) , give the reported growth inhibition.
Result: -4.3% (inactive)

Ask: For the compound shown here, "CN(C)C(=N)N=C(N)N" , give the reported growth inhibition.
Result: -27.6% (inactive)

Ask: For the compound shown here, "CC(=O)n1cc(CS)c(=O)[nH]c1=O" , give the reported growth inhibition.
Result: -2.5% (inactive)

Ask: For the compound shown here, "CCc1nc2cc(F)ccc2[nH]c1=O" , give the reported growth inhibition.
Result: 28.9% (inactive)

Ask: For the compound shown here, "Cc1nc(-c2ccccc2)nc2c1nc(Cc1ccc(Cl)cc1)n2Nc1ccccc1" , give the reported growth inhibition.
Result: 1.6% (inactive)

Ask: For the compound shown here, CC1NC(=O)C(C)C(c2ccccc2)N(N=O)C1c1ccccc1 (stereo not given) , give the reported growth inhibition.
Result: 14.6% (inactive)

Ask: For the compound shown here, CCN(CC)CC(O)c1cccc2cccnc12 (stereo not given) , give the reported growth inhibition.
Result: 17.4% (inactive)

Ask: For the compound shown here, "O=C(NCc1ccccc1)NC(c1ccccc1)(c1ccccc1)c1ccccc1" , give the reported growth inhibition.
Result: 34.6% (inactive)

Ask: For the compound shown here, "C1=C(c2ccccc2)OC(c2ccccc2)=C(c2ccccc2)[P+]1(c1ccccc1)c1ccccc1" , give the reported growth inhibition.
Result: 99.7% (active)

Ask: For the compound shown here, "CCOC(=O)c1ccc(Nc2nc3ccccc3o2)cc1" , give the reported growth inhibition.
Result: 9.05% (inactive)

Ask: For the compound shown here, "CC(=O)OCc1ccc([N+](=O)[O-])cc1" , give the reported growth inhibition.
Result: -8.8% (inactive)

Ask: For the compound shown here, O=C1CCC(=O)N1CC1CC2CCC1C2 (stereo not given) , give the reported growth inhibition.
Result: 22.2% (inactive)

Ask: For the compound shown here, "CN(C)c1ccc(Cc2ccc(N(C)C)c3cccnc23)c2ncccc12" , give the reported growth inhibition.
Result: 13.7% (inactive)

Ask: For the compound shown here, FC1(F)ON2CCc3ccccc3C2[C@H]1c1ccccc1 (stereo not given in full) , give the reported growth inhibition.
Result: 10.2% (inactive)

Ask: For the compound shown here, "COc1ccccc1/C=N\NC(C)=O" , give the reported growth inhibition.
Result: 5.35% (inactive)

Ask: For the compound shown here, COC(SC)(C(=O)O)c1cc(-c2c(Cl)cccc2Cl)no1 (stereo not given) , give the reported growth inhibition.
Result: -9.35% (inactive)
